The values you see were collected from patent US20090280138A1.

target: T1, MHC class I allele B*0702 (bound via biotin to streptavidin-coated plate); experiment: iTopia peptide binding assay
T1 construct: iTopia MHC class I monomer on the plate; placeholder peptide and b2M removed, then reconstituted with test peptide and fresh b2M; also called B7; HLA B7
Output Met for records whose % of positive control peptide binding is lower than 5%, Not met for records at or above 5%.

Use the examples below as a reference point.
Binder	Class Name
GMVVAALLA (also called Peptide No 99) [5T4 9 mer peptide 99 GMVVAALLA]	Met
LPSLRHLDL (also called Peptide No 117) [5T4 9 mer peptide 117 LPSLRHLDL]	Not met
QCPALCECS (also called Peptide No 31) [5T4 9 mer peptide 31 QCPALCECS]	Met
AGRALQGLR (also called Peptide No 103) [5T4 9 mer peptide 103 AGRALQGLR]	Met
TEVPTDLPA (also called Peptide No 42) [5T4 9 mer peptide 42 TEVPTDLPA]	Met
DEVRAGAFE (also called Peptide No 66) [5T4 9 mer peptide 66 DEVRAGAFE]	Not met

Below: the item to evaluate.
I'd appreciate it if you could check whether SSAPFLASA (also called Peptide No 22) [5T4 9 mer peptide 22 SSAPFLASA] has % of positive control peptide binding smaller than 5%.
Not met
